Field: IC50. Provide a value for each of the compounds that follow.
# TARGET UNDER TEST: human aldose reductase (hALR2) (Homo sapiens, UniProt P15121)
# ASSAY PROTOCOL: inhibition of human aldose reductase (hALR2), methods similar to Butera et al.
# Type: biochemical
# TEST CONTEXT: concentration required to inhibit human aldose reductase activity by 50%
Express the result in nM but write the number alone.

What measured IC50 goes with `Cc1cc(C(=S)NCc2ccc(Br)cc2F)c(OCC(=O)O)cc1F` ?
24

Entry `O=C(O)COc1cc(Cl)ccc1C(=O)NCc1cccc(C(F)(F)F)c1` : reported IC50 = ?
39

Tell me the measured IC50 of `O=C(O)COc1cc(F)c(-c2ccccc2)cc1C(=O)NCc1cccc([N+](=O)[O-])c1` , please.
7

For the compound `O=C(O)COc1cc(F)ccc1C(=S)NCc1nc2c(F)c(F)cc(F)c2s1` , what IC50 is on record?
15

Which value of IC50 has been reported for `O=C(O)COc1cc(F)ccc1C(=S)NCc1ccc(Br)cc1F` in the records?
34

Given the entry `O=C(O)COc1cc(Cl)ccc1C(=O)NCc1ccc(Cl)c(Cl)c1` , report its measured IC50.
34

// IC50 lookup, key: `Cc1ccc(OCC(=O)O)c(C(=O)NCc2ccc(Br)cc2F)c1`
69

Field request: IC50 | item: `O=C(O)COc1cc(F)ccc1C(=O)NCc1cccc([N+](=O)[O-])c1`
8

Look up IC50: `O=C(O)COc1cc(F)ccc1C(=S)NCc1cccc([N+](=O)[O-])c1`
6

// lookup IC50 for `Cc1cc(C(=O)NCc2cccc([N+](=O)[O-])c2)c(OCC(=O)O)cc1F`
8

// lookup IC50 for `O=C(O)COc1ccc(F)cc1C(=O)NCc1ccc(Br)cc1F`
150

GET /values?readout=IC50&item= `O=C(O)COc1ccc(Cl)cc1C(=O)NCc1ccc(Br)cc1F`
46

I have this compound here, `O=C(O)COc1cc(Cl)ccc1C(=O)NCc1cc(F)cc(C(F)(F)F)c1` , and I need its recorded IC50.
29

# get_value(readout='IC50', item= `O=C(O)COc1cc(F)ccc1C(=O)NCc1nc2c(F)c(F)cc(F)c2s1` )
11

Returns the measured IC50 for the input compound. Input: `O=C(O)COc1ccc(Br)cc1C(=O)NCc1ccc(Br)cc1F`
64

Please give the measured IC50 for this compound: `O=C(O)COc1cc(F)ccc1C(=O)NCc1ccc(Br)cc1F`
55

State the recorded IC50 for this entry: `O=C(O)COc1cc(F)c(-c2ccccc2)cc1C(=S)NCc1cccc([N+](=O)[O-])c1`
11

Value lookup for IC50; key = `O=C(O)COc1ccccc1C(=O)NCc1ccc(Br)cc1F`
180

Quick one: IC50 for `O=C(O)COc1ccc([N+](=O)[O-])cc1C(=O)NCc1ccc(Br)cc1F` ?
200

Give its IC50 value. Item: `Cc1ccc(OCC(=O)O)c(C(=O)NCc2cccc([N+](=O)[O-])c2)c1`
11

Quick check: IC50 of `O=C(O)COc1cc(Cl)ccc1C(=O)NCc1nc2cc(C(F)(F)F)ccc2s1` ?
35

Given the entry `CSc1ccc(C(=O)NCc2ccc(Br)cc2F)c(OCC(=O)O)c1` , report its measured IC50.
83

Given the compound `O=C(O)COc1ccc(OC(F)(F)F)cc1C(=S)NCc1cccc([N+](=O)[O-])c1` , what is its reported IC50?
12

Sample `O=C(O)COc1cc(F)c(Br)cc1C(=O)NCc1cccc([N+](=O)[O-])c1` — what was its IC50?
6

Form field: reported IC50 of `O=C(O)COc1cc(F)c(F)cc1C(=O)NCc1ccc(Br)cc1F`
37

Given `N#Cc1cc(C(=O)NCc2cccc([N+](=O)[O-])c2)c(OCC(=O)O)cc1F` , state its recorded IC50.
7
